Source listed as PubChem BioAssay AID2717.

assay: cancer stem cell viability inhibitors, primary screen, luminescence (AID 2717); conditions: cancer stem cell-like cells viability, at 7.5 µM
Screen size: about 300,000 compounds; about 3,200 (1.1%) were called active. Rule as the data show it: active = inhibition above about 75%; inconclusive = no clear call, values can overlap the other calls; inactive = below that; tested in HMLE shEcad cells. Many of the other results were omitted from the sample, so actives are more common in it than they were.
Parameter call: string, one of YES = active, NO = inactive

Worked set:
molecule: Cc1cccc(NC(=O)c2nc[nH]c2C(=O)NCC(=O)OCc2ccccc2)c1
category: NO

molecule: CCSc1nnc(NC(=O)c2ccc(C)cc2)s1
category: NO

molecule: O=C(CC1Nc2ccccc2NC1=O)Nc1ccccc1 (stereo unspecified)
category: YES

molecule: Cc1ccc2[nH]c(=O)c(CC(=O)O)c(-c3ccccc3)c2c1
category: NO

Query: Test call, this molecule: `Cc1cccc(N(C)C(=O)c2cc3c(=O)[nH]c4ccc(C)cc4c3s2)c1`
Result: YES

Query: // next record Cc1ccccc1-c1cc(C(=O)NCc2cccs2)n(CC2CC(c3cccnc3)=NO2)n1 (stereo unspecified)
Result: NO

Query: // next record O=C(CC1NCCc2ccccc21)Nc1cccc(Cl)c1 (stereo unspecified)
Result: NO

Query: // next record `COC(=O)C1=C(C)N(Cc2ccccc2)C(=NCCCOC(C)C)N[C@H]1c1ccccc1`
Result: NO

Query: // next record `COc1ccc(S(=O)(=O)N2CCN(c3cnccn3)CC2)cc1`
Result: NO

Query: // next record `CCSc1ncc(Cl)c(C(=O)Nc2cc(C)ccc2C)n1`
Result: NO

Query: // next record O=C(CC1NCCNC1=O)Nc1ccc(Oc2ccccc2)cc1 (stereo unspecified)
Result: NO
